Assay: Quantitative High-Throughput drug screen in 47 multiple myeloma cell lines against the NCATS MIPE library collection: OPM1_PLB cell viability assay (AID 1918989); further: nearly all actives have a fitted effect of over 40% in size
Conditions: CellTiter-Glo, 48 h; series mostly up to 45.8 µM
Records with an inconclusive call do not appear. Active and inactive are the calls of the source. The call rests on the fitted dose curve; in most records, active means well fitted cell-killing curve with a large enough effect; inconclusive means small, poorly fitted or top-dose-only effect, or effect the other way; inactive means no such curve, though single readings can be large or run the other way.
Tick one outcome: active, inactive

Examples from the recorded data:
CC(C[N+](C)(C)C)OC(N)=O (stereo not drawn) | inactive
Cc1ccc(-n2nc(C(C)(C)C)cc2NC(=O)Nc2ccc(OCCN3CCOCC3)c3ccccc23)cc1 | active

// switching to the query molecule
// return assay outcome for COc1ccc(-c2ccc3c(N4CCOCC4)nc(N4C[C@@H](C)O[C@@H](C)C4)nc3n2)cc1CO
active

###

Test: Quantitative High-Throughput drug screen in 47 multiple myeloma cell lines against the NCATS MIPE library collection: MM1S_ATCC cell viability assay (AID 1918980); further: nearly all actives have a fitted effect of over 45% in size
Settings: MM1S myeloma viability, CellTiter-Glo ATP luminescence, 48 h; series mostly up to 45.8 µM
Description: PI: Beverly A. Mock Ph.D. Laboratory of Cancer Biology and Genetics, Center for Cancer Research, National Cancer Institute, National Institute of Health, Bethesda, Maryland […] 5; Detector; 425V; Luminescence; Viewlux PerkinElmer. […] 1. […] Briefly, the corresponding myeloma cell lines were screened in 1,536-well plates with 500 cells, 5-uL per well for inhibition of cell viability (assessed by measuring ATP levels with CellTiterGlo). […]
Results filed as inconclusive are left out. Activity calls are given as the source filed them. The call rests on the fitted dose curve; in most records, active means well fitted cell-killing curve with a large enough effect; inconclusive means small, poorly fitted or top-dose-only effect, or effect the other way; inactive means no such curve, though single readings can be large or run the other way.
Tick one outcome: active, inactive

Examples from the recorded data:
Cc1ccccc1C(OCCN(C)C)c1ccccc1 (stereo not given) | inactive
CC(C)C[C@H](NC(=O)[C@@H](O)[C@H](N)Cc1ccccc1)C(=O)O | active
COc1cc2nccc(Oc3ccc(NC(=O)NC4CC4)c(Cl)c3)c2cc1C(N)=O | active

// return assay outcome for CC(C=CC1=C(C)CCCC1(C)C)=CC=CC(C)=CC(=O)O
active

// return assay outcome for O=C(c1cc(Cc2n[nH]c(=O)c3ccccc23)ccc1F)N1CCN(C(=O)C2CC2)CC1
active

###

Test: qHTS of pediatric cancer cell lines to identify multiple opportunities for drug repurposing: Primary screen for SK-N-MC cells (AID 1347093)
Details: SK-N-MC viability, CellTiter-Glo luminescence, 48 h; series mostly up to 46 µM
Records with an inconclusive call do not appear. The source made the active and inactive calls. Calls come from the whole dose curve; as a rule, active = well fitted cell-killing curve with a large enough effect; inconclusive = small, poorly fitted or top-dose-only effect; inactive = no such curve, though single readings can be large or run the other way.
Tick one outcome: True = active, False = inactive

CC(C)(N)C(=O)N[C@H](COCc1ccccc1)C(=O)N1CCC2(CC1)CN(S(C)(=O)=O)c1ccccc12 | True
Cc1cccc(-c2nn(C(=S)Nc3ccccc3)cc2-c2ccnc3ccccc23)n1 | False
c1ccc(-c2nn3c(c2-c2ccnc4cc(OCCN5CCOCC5)ccc24)CCC3)nc1 | False
CN(C)C(=O)c1ccc(S(=O)(=O)c2ccc(NC(=O)[C@@](C)(O)C(F)(F)F)c(Cl)c2)cc1 | True

// switching to the query compound
// return assay outcome for CCOc1cc(N2CCC(O)CC2)ccc1Nc1ncc2c(n1)N(C)c1ccccc1C(=O)N2C
True

###

Test: Quantitative High-Throughput drug screen in 47 multiple myeloma cell lines against the NCATS MIPE library collection: KMS26_JCRB cell viability assay (AID 1918975); further: nearly all actives have a fitted effect of over 45% in size
Details: KMS26 myeloma cells viability, CellTiter-Glo ATP, 48 h; series mostly up to 45.8 µM
Records with an inconclusive call do not appear. The source made the active and inactive calls. Calls follow the shape of the dose curve; as a rule, active = well fitted cell-killing curve with a large enough effect; inconclusive = small, poorly fitted or top-dose-only effect, or effect the other way; inactive = no such curve, though single readings can be large or run the other way.
Tick one outcome: 1 (yes) (active), 0 (no) (inactive)

Examples from the recorded data:
CCOC(=O)N[C@@H]1CC[C@@H]2[C@@H](C1)C[C@H]1C(=O)O[C@H](C)[C@H]1[C@@H]2C=Cc1ccc(-c2cccc(F)c2)cn1 | 0 (no)
CCOC(=O)C1=C[C@]2(CC)CCCN3CCc4c(n1c1ccccc41)[C@@H]32 | 1 (yes)
CC(C)C[C@H](NC(=O)[C@@H](O)[C@H](N)Cc1ccccc1)C(=O)O | 1 (yes)

// return assay outcome for Cc1cc2c(C(C)C)c(O)c(O)c(C=O)c2c(O)c1-c1c(C)cc2c(C(C)C)c(O)c(O)c(C=O)c2c1O
1 (yes)

###

Test: qHTS of pediatric cancer cell lines to identify multiple opportunities for drug repurposing: Primary screen for NB-EBc1 cells (AID 1347095)
Details: NB-EBc1 neuroblastoma viability, CellTiter-Glo luminescence, 48 h; series mostly up to 46 µM
Experimental: Drug repurposing or repositioning has been offered as a strategy for drug development in oncology programs. This approach has special potential for childhood cancers and other rare or orphan diseases, where the expected return on new drug development has been a disincentive to pharmaceuticals. […] We employed a titration-based paradigm (quantitative high-throughput screening or qHTS), where all compounds were tested at multiple concentrations for their effect on cell viability. […]
Records with an inconclusive call do not appear. Activity calls are given as the source filed them. Calls come from the whole dose curve; as a rule, active = well fitted cell-killing curve with a large enough effect; inconclusive = small, poorly fitted or top-dose-only effect; inactive = no such curve, though single readings can be large or run the other way.
Tick one outcome: label 1 (active), label 0 (inactive)

Nc1nc2c(ncn2COCCO)c(=O)[nH]1 | label 0
COc1cccc2cc(-c3nc(C4CCC(C(=O)O)CC4)n4ncnc(N)c34)[nH]c12 (stereo unspecified) | label 1
NC(=O)c1cnccn1 | label 0
Cc1csc(NC(=O)c2sc3nc4c(c(C(F)(F)F)c3c2N)CCC4)n1 | label 0
CC[C@H](Nc1ncnc2nc[nH]c12)c1nc2cccc(F)c2c(=O)n1-c1ccccc1 | label 1
CC(C)NCC(O)COc1ccc(COCCOC(C)C)cc1 (stereo unspecified) | label 0

// return assay outcome for Cc1cnc(NC(=O)C2=C(O)c3ccccc3S(=O)(=O)N2C)s1
label 0

// return assay outcome for NCCc1ccc(O)c(O)c1
label 0

###

Assay: qHTS for differential inhibitors of proliferation of Plasmodium falciparum line W2 (AID 1883);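 further: parasites grown with compound for 72 h before lysis and staining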
Conditions: Plasmodium falciparum W2 proliferation inhibition; series mostly up to 28.7 µM
Inconclusive results are not listed. Activity calls are given as the source filed them. Calls follow the shape of the dose curve; as a rule, active = well fitted curve in the direction sought with a large enough effect; inconclusive = small, poorly fitted or top-dose-only effect, or another doubt; inactive = no such curve, though single readings can be large or run the other way.
Tick one outcome: 1 (active), 0 (inactive)

Examples from the recorded data:
Cc1cnc(NC(=O)C2=C(O)c3ccccc3S(=O)(=O)N2C)s1 | 1
Cn1cnc([N+](=O)[O-])c1Sc1ncnc2nc[nH]c12 | 1
CCn1cc(C(=O)O)c(=O)c2cc(F)c(N3CCNC(C)C3)c(F)c21 (configuration not stated) | 1

// return assay outcome for Oc1ccc(C2CNCCc3c2cc(O)c(O)c3Cl)cc1 (configuration not stated)
1

// return assay outcome for CC(=O)Oc1ccccc1C(=O)O
0

// return assay outcome for Cc1cn[nH]c1
0

// return assay outcome for Cc1ccccc1C(OCCN(C)C)c1ccccc1 (configuration not stated)
1

###

Assay: qHTS profiling of the MIPE4 collection as inhibitors of Plasmodium falciparum (DD2) proliferation (Rep 2) (AID 743346)
Conditions: P. falciparum Dd2 in erythrocytes, SYBR Green DNA, 72 h; at 28.5 µM (top of the series) unless noted
Examples of compounds with documented parasite growth, % of control (lower = inhibition) follow.
Quick note: give the figure in %, leave out the unit.

Would you please look over these solved cases?
CCCc1nc2c(C)cc(-c3nc4ccccc4n3C)cc2n1Cc1ccc(-c2ccccc2C(=O)O)cc1 | 21.8
CCc1cc(Nc2nccc(-c3c(-c4ccc(OC)c(C(=O)Nc5c(F)cccc5F)c4)nc4ccccn34)n2)c(OC)cc1N1CCC(N2CCN(S(C)(=O)=O)CC2)CC1 | 14.9

# parasite growth, % of control (lower = inhibition) of CCN(CC)CCCC(C)Nc1nc(C)cc(Nc2ccc3nc(C)cc(N)c3c2)n1 (stereo not drawn) = 14.4

###

Assay: qHTS of pediatric cancer cell lines to identify multiple opportunities for drug repurposing: Primary screen for Rh18 cells (AID 1347102); further: nearly all actives have a fitted effect of over 65% in size
Conditions: Rh18 rhabdomyosarcoma viability, CellTiter-Glo luminescence, 48 h; series mostly up to 46 µM
Inconclusive results are not listed. Activity calls are given as the source filed them. Calls come from the whole dose curve; as a rule, active = well fitted cell-killing curve with a large enough effect; inconclusive = small, poorly fitted or top-dose-only effect; inactive = flat fitted curve, though single readings scatter.
Tick one outcome: 1 = active, -1 = inactive

Examples from the recorded data:
C1COC(NC(C2CC2)C2CC2)=N1 | -1
CCC(=O)N[C@H]1CC[C@H](C(=O)N(C)c2ccc(-c3nc4ccccc4o3)cc2)C1 | -1
COc1ccc([C@@H]2CC(=O)c3c(O)cc(O[C@@H]4O[C@H](CO[C@@H]5O[C@@H](C)[C@H](O)[C@@H](O)[C@@H]5O)[C@@H](O)[C@H](O)[C@@H]4O)cc3O2)cc1O | -1

// return assay outcome for Cc1cccc(-c2nn(C(=S)Nc3ccccc3)cc2-c2ccnc3ccccc23)n1
-1

// return assay outcome for CN[C@@H](C)C(=O)N[C@H]1CCCC[C@H]2CC[C@@H](C(=O)N[C@@H](c3ccccc3)c3cn(CCCCc4ccc(CCCCn5cc([C@@H](NC(=O)[C@@H]6CC[C@@H]7CCCC[C@H](NC(=O)[C@H](C)NC)C(=O)N76)c6ccccc6)nn5)cc4)nn3)N2C1=O
1

// return assay outcome for CCC(C)N(C)C(=O)c1cc2ccccc2c(-c2ccccc2Cl)n1 (stereo unspecified)
-1

// return assay outcome for Nc1nc2c(ncn2COCCO)c(=O)[nH]1
-1

// return assay outcome for CCC(C)n1ncn(-c2ccc(N3CCN(c4ccc(OC[C@H]5CO[C@](Cn6cncn6)(c6ccc(Cl)cc6Cl)O5)cc4)CC3)cc2)c1=O (stereo partly specified)
-1
